Read-out: Ezrin (EZR), EZR (gene 7430)
protocolSummary: LTEA_HepaRG_EZR: Life Technologies and Expression Analysis (LTEA) Assay for Ezrin (EZR) using HepaRG (AID 2283491)
appliedConditions: mRNA level, 48 h; actives raise or lower the signal
Procedure: It is a marker of Cellular remodeling.Data from the assay component LTEA_HepaRG_EZR was analyzed into 1 endpoint. This assay endpoint, LTEA_HepaRG_EZR, was analyzed with bidirectional fitting relative to DMSO as the negative control and baseline of activity. Using a type of inducible reporter, measures of mRNA induction for gain or loss-of-signal activity can be used to understand regulation of transcription factor activity. […]
Activity calls are given as the source filed them. How the source made its calls: active means hit-call score of the fitted dose curve at least 0.9, where 1 is the maximum; inactive means score below 0.9.
Labels: true = active, false = inactive

compound: CC(C)(C)[C@@H](O)[C@@H](Cc1ccc(Cl)cc1)n1cncn1
answerLabel: false
--
compound: CCCN(CCC)C(=O)SCC
answerLabel: false
--
compound: C=CCOC(Cn1ccnc1)c1ccc(Cl)cc1Cl (configuration not stated)
answerLabel: false
--
compound: CCCN(CCC)c1c([N+](=O)[O-])cc(C(F)(F)F)c(N)c1[N+](=O)[O-]
answerLabel: false
--
compound: CC(=O)S[C@@H]1CC2=CC(=O)CC[C@]2(C)[C@H]2CC[C@@]3(C)[C@@H](CC[C@@]34CCC(=O)O4)[C@H]12
answerLabel: true
--
compound: COC(=O)c1ccc(I)cc1S(=O)(=O)NC(=O)Nc1nc(C)nc(OC)n1
answerLabel: false
--
compound: CCCOC(=O)NCCCN(C)C
answerLabel: false

###

Read-out: Thrombomodulin, THBD (gene 7056)
protocolSummary: BSK_CASM3C_Thrombomodulin: BioMAP Diversity Plus: CASM3C Assay for Thrombomodulin Biomarker Activity (AID 2283051);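 further: thrombomodulin protein level measured by ELISA 24 h after dosing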
appliedConditions: primary human coronary artery smooth muscle cells; actives raise or lower the signal
Activity calls are given as the source filed them. The calls were made as follows: active = hit-call score of the fitted dose curve at least 0.9, where 1 is the maximum; inactive = score below 0.9.
Labels: Y for active, N for inactive

compound: O=C(O)c1ccccc1
answerLabel: N
--
compound: C[C@]12CC[C@@H]3c4ccc(O)cc4C[C@@H](CCCCCCCCCS(=O)CCCC(F)(F)C(F)(F)F)[C@H]3[C@@H]1CC[C@@H]2O (stereo partly specified)
answerLabel: N
--
compound: CC(C)CCCCCCc1ccc(O)cc1
answerLabel: Y
--
compound: S=C([S-])NCCNC(=S)[S-].[Mn+2]
answerLabel: Y
--
compound: S=C(S)NCCNC(=S)S.[Mn+2].[S-]C([S-])=NCCN=C([S-])[S-].[Zn+2]
answerLabel: N
--
compound: COC(=O)CSc1cc(N=c2sc(=O)n3n2CCCC3)c(F)cc1Cl
answerLabel: N

###

Read-out: TIMP metallopeptidase inhibitor 2 (TIMP2), TIMP2 (gene 7077)
protocolSummary: BSK_KF3CT_TIMP2: BioMAP Diversity Plus: KF3CT Assay for TIMP metallopeptidase inhibitor 2 (TIMP2) Biomarker Activity (AID 2283071)
appliedConditions: primary human keratinocytes with fibroblasts; actives raise or lower the signal
Calls of active or inactive are those of the source. The calls were made as follows: active = hit-call score of the fitted dose curve at least 0.9, where 1 is the maximum; inactive = score below 0.9.

compound: C#C[C@]1(O)CC[C@H]2[C@@H]3CCC4=CC(=O)CC[C@@H]4[C@H]3CC[C@@]21CC
outcome: inactive
//
compound: COC(=O)CSc1cc(N=c2sc(=O)n3n2CCCC3)c(F)cc1Cl
outcome: inactive
//
compound: CCC(O)=C1C(=O)CC(C(=O)O)CC1=O (stereo not drawn)
outcome: inactive
